- Protocol text: [11C]GSK1034702 PET brain distribution and kinetics in healthy male humans
- Type: in vivo
- Protocol conditions: human, brain striatum, intravenous, Striatum, Subject 1 Scan 1 (baseline), read-out: V T
Reported metric: Kp

- [11CH3]c1cc(F)c2[nH]c(=O)n(C3CCN(C4CCOCC4)CC3)c2c1 [[^11C]GSK1034702]: 5.59

* * *

- Protocol text: [11C]GSK1034702 PET brain distribution and kinetics in healthy male humans
- Format: in vivo
- Protocol conditions: human, brain white matter, intravenous, White matter, Subject 4 Scan 1 (baseline), read-out: V T
Reported metric: Kp

- [11CH3]c1cc(F)c2[nH]c(=O)n(C3CCN(C4CCOCC4)CC3)c2c1 [[^11C]GSK1034702]: 5.04

* * *

- Protocol text: [11C]GSK1034702 PET brain distribution and kinetics in healthy male humans
- Format: in vivo
- Protocol conditions: human, brain striatum, intravenous, Striatum, Subject 2 Scan 1 (baseline), read-out: V T
Reported metric: Kp

- [11CH3]c1cc(F)c2[nH]c(=O)n(C3CCN(C4CCOCC4)CC3)c2c1 [[^11C]GSK1034702]: 5.05

* * *

- Protocol text: brain tissue binding by equilibrium dialysis, monkey
- Assay type: in vitro ADME
- Protocol conditions: brain tissue, equilibrium dialysis 5 h, read-out: f ND (brain-free fraction)
Reported metric: fraction unbound at 5 h, 1 μg/mL

- Cc1cc(F)c2[nH]c(=O)n(C3CCN(C4CCOCC4)CC3)c2c1 [GSK1034702]: 0.17

* * *

- Protocol text: plasma protein binding by equilibrium dialysis, rat
- Format: in vitro ADME
- Protocol conditions: Rat (LH), equilibrium dialysis 5 h, read-out: f P (plasma-free fraction)
Reported metric: fraction unbound at 5 h, 1 μg/mL

* Cc1cc(F)c2[nH]c(=O)n(C3CCN(C4CCOCC4)CC3)c2c1 | 0.55

* * *

- Protocol text: [11C]GSK1034702 PET brain distribution and kinetics in anaesthetised baboons
- Assay type: in vivo, Papio anubis
- Protocol conditions: male, baboon (Papio anubis), whole brain, intravenous, Whole brain; Subject B Exam 1; baboon; read-out: Regional V T
Reported metric: Kp

- [11CH3]c1cc(F)c2[nH]c(=O)n(C3CCN(C4CCOCC4)CC3)c2c1 [[^11C]GSK1034702]: 3.52

* * *

- Protocol text: [11C]GSK1034702 PET brain distribution and kinetics in healthy male humans
- Type: in vivo
- Protocol conditions: male, human, medial temporal lobe (MTL), intravenous, range over scans, read-out: VT in the MTL
- Procedure: An open-label PET study (GSK study number 110771) was conducted to assess the transport of [^11C]GSK1034702 across the BBB and its distribution in the living human brain. […] Clinical status was assessed by history, physical examination, routine blood tests, urine toxicology and electrocardiogram. […] Subjects were recruited by and monitored by the Hammersmith Medicines Research (HMR) clinic. […]
Reported metric: Kp

- [11CH3]c1cc(F)c2[nH]c(=O)n(C3CCN(C4CCOCC4)CC3)c2c1 [[^11C]GSK1034702]: 7 to 13

* * *

- Protocol text: [11C]GSK1034702 PET brain distribution and kinetics in healthy male humans
- Format: in vivo
- Protocol conditions: human, medial temporal lobe (MTL), po, MTL, Subject 4 Scan 2 (post dose, 5 mg oral), read-out: V T
Reported metric: Kp

• [11CH3]c1cc(F)c2[nH]c(=O)n(C3CCN(C4CCOCC4)CC3)c2c1 [[^11C]GSK1034702] = 6.91

Numbers sourced from paper PMC4452589.
